# studyTarget: Platelet-activating factor acetylhydrolase IB subunit alpha2 (Homo sapiens) (UniProt P68402)
# Sequence (P68402 whole entry, looked up): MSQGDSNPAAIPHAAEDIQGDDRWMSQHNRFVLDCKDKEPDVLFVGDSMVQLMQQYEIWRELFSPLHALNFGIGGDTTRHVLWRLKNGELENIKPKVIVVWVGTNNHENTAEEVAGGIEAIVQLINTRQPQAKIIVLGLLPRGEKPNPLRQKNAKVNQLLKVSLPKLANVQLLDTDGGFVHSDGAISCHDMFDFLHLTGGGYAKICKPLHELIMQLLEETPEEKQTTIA
# assayText: inhibition of human PAFAH1B2 catalytic subunit – biochemical, fluorescence polarization, FP-rhodamine probe, triplicate, confirmation (AID 493034);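 also: 0% = enzyme with DMSO and 100% = wells lacking PAFAH1B2 protein; inhibitors lower polarization by leaving the probe unbound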
# experimentalParameters: recombinant PAFAH1B2, FP-rhodamine probe fluorescence polarization; at 3.39 µM; active compounds read high
Out of some 2,400 compounds screened, about 2,200 (92%) were called active. The set was probably picked from earlier hits. The list shows a part of the results.
List of inhibition values.
State the answer as a number, implicitly in %.

Cc1ccc(OCCOc2cccc(C=C3C(=O)NC(=O)NC3=O)c2)cc1 : 36.7
O=C1NC(=O)C(=Cc2ccc(-c3ccc(F)cc3O)o2)C(=O)N1 : 20.5
C=C[C@@H]1C[C@@]1(C)[C@@H](NP(=O)(c1ccccc1)c1ccccc1)c1ccccc1 : 29.2

Return inhibition for the following compound: Cc1ccc(-c2nc3ccc(Cl)cc3n2OC(=O)N(C)C)cc1 59

Let me know recorded inhibition for FC(F)(F)c1cccc(-n2nnnc2C2(N3CCOCC3)CCCCC2)c1 , thanks. 23.3

Name the recorded inhibition of the compound listed here: O=C(O)CCn1cc(C=C2C(=O)NC(=O)NC2=O)c(-c2ccc(Br)cc2)n1 36.4
